experiment: Pharmacokinetics after IV and oral dose, dogs; assay type: in vivo, Beagle dogs; details: Beagle, plasma; dog, male, single IV dose 1 mg
MEASURED_ENDPOINT: clearance

>>> df
                                   molecule       result
0  COc1ccc(-c2c(-c3ccc(C#N)c(F)c3)nc(N3CCC(N)CC3)n(C)c2=O)cc1F [Compound A]  9 mL/min/kg

----------
test: Pharmacokinetics after IV and oral dose, dogs; type: in vivo, Beagle dogs; conditions: Beagle, plasma; dog, male, single IV dose 1 mg; read-out: t1/2, z (converted)
MEASURED_ENDPOINT: half-life

In [3]: df
Out[3]:
                                   molecule  measured_endpoint  result
0  COc1ccc(-c2c(-c3ccc(C#N)c(F)c3)nc(N3CCC(N)CC3)n(C)c2=O)cc1F [Compound A]          half-life  15.5 h

----------
test: Pharmacokinetics after IV and oral dose, dogs; type: in vivo, Beagle dogs; settings: Beagle, plasma; dog, male, single IV dose 1 mg
MEASURED_ENDPOINT: AUC(0-t) (ng·h/mL)

                                     smiles  result
0  COc1ccc(-c2c(-c3ccc(C#N)c(F)c3)nc(N3CCC(N)CC3)n(C)c2=O)cc1F    1300

----------
test: Pharmacokinetics after IV and oral dose, rats; assay type: in vivo, Sprague Dawley rats; settings: Sprague Dawley, plasma; rat, female, single oral dose 50 mg base/kg
MEASURED_ENDPOINT: AUC(0-t) (ng·h/mL)

>>> df
                                   molecule  unit_string  result
0  COc1ccc(-c2c(-c3ccc(C#N)c(F)c3)nc(N3CCC(N)CC3)n(C)c2=O)cc1F [Compound A]      ng·h/mL    4650

----------
assay: Pharmacokinetics after IV and oral dose, rats; format: in vivo, Sprague Dawley rats; conditions: Sprague Dawley, plasma; rat, female, single oral dose 50 mg base/kg
MEASURED_ENDPOINT: bioavailability (%)

>>> df
                                     smiles  measured_endpoint  unit_string  result
0  COc1ccc(-c2c(-c3ccc(C#N)c(F)c3)nc(N3CCC(N)CC3)n(C)c2=O)cc1F    bioavailability            %      74

----------
molecular target: CYP2C19 (Homo sapiens (Human))
Sequence (P33261 whole entry): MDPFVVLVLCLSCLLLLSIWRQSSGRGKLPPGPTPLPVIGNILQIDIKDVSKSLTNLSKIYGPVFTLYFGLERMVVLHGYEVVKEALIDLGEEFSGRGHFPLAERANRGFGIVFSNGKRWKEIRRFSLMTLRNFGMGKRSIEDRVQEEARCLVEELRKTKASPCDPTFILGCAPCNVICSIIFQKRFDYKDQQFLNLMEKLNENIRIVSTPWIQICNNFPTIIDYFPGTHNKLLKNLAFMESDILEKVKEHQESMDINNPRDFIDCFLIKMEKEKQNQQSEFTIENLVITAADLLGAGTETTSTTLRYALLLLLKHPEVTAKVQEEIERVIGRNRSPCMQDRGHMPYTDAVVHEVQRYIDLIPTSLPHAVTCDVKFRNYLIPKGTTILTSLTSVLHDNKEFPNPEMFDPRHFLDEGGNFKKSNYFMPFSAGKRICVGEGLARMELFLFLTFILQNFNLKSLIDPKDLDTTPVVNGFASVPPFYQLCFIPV
MEASURED_ENDPOINT: IC50

>>> print(df.to_string())
                                   compound                    assay_target   result
0  COc1ccc(-c2c(-c3ccc(C#N)c(F)c3)nc(N3CCC(N)CC3)n(C)c2=O)cc1F [Compound A]  CYP2C19 (Homo sapiens (Human))  > 50 µM

----------
assay: Pharmacokinetics after IV and oral dose, mice; assay type: in vivo, CD-1 mice; conditions: CD-1, plasma; mouse, female, single oral dose 10 mg base/kg; read-out: t1/2, z (converted)
MEASURED_ENDPOINT: half-life (h)

In [3]: df
Out[3]:
                                     smiles  measured_endpoint  unit_string  result
0  COc1ccc(-c2c(-c3ccc(C#N)c(F)c3)nc(N3CCC(N)CC3)n(C)c2=O)cc1F          half-life            h     1.7

----------
tested on: Kasumi-1 AML cancer cell line; test: Kasumi-1 AML cell line proliferation assay (Cell-MTS); assay type: cell-based; conditions: Homo sapiens, 168 hours
MEASURED_ENDPOINT: IC50

>>> df
                                     smiles          result
0  CN(C)C1CCN(c2nc(-c3ccc(C#N)c(F)c3)c(-c3ccc4nn(C)cc4c3)c(=O)n2C)CC1        < 100 nM
1  Cn1c(N2CCC(N)CC2)nc(-c2ccc(C#N)cc2)c(-c2cnn(CC(F)(F)F)c2)c1=O        < 100 nM
2  Cn1c(N2CCC(N)CC2)nc(-c2ccc(C#N)c(F)c2)c(-c2ccc3c(cnn3C)c2)c1=O        < 100 nM
3  Cn1cc2cc(-c3c(-c4ccc(C#N)cc4)nc(N4CCC(N)CC4)n(C)c3=O)ccc2n1        < 100 nM
4  COc1ccc(-c2c(-c3ccc(C#N)c(F)c3)nc(N3CCC(N)CC3)n(C)c2=O)cn1        < 100 nM
5  COc1ccc(-c2c(-c3ccc(C#N)cc3)nc(N3CCC(N)CC3)n(C)c2=O)cn1        < 100 nM
6  Cc1ccc(-c2c(-c3ccc(C#N)c(F)c3)nc(N3CCC(N)CC3)n(C)c2=O)cn1        < 100 nM
7  Cc1ccc(-c2c(-c3ccc(C#N)cc3)nc(N3CCC(N)CC3)n(C)c2=O)cn1  100 to 1000 nM

----------
experiment: 4-week oral gavage pivotal toxicity study with 4-week recovery in dogs (incl. ECG, TK); type: in vivo, Beagle dogs; conditions: male, Beagle, dog, in vivo, po, AUC0-168
MEASURED_ENDPOINT: AUC(0-t) (ng·h/mL)

>>> print(df.to_string())
                                   molecule  measured_endpoint  result
0  COc1ccc(-c2c(-c3ccc(C#N)c(F)c3)nc(N3CCC(N)CC3)n(C)c2=O)cc1F [Compound A]           AUC(0-t)     503

----------
assay: in vivo; settings: female, Beagle, dog, po, 0.5 mg/kg, AUC0-96
MEASURED_ENDPOINT: AUC(0-t) (ng·h/mL)

>>> df
                                   compound  measured_endpoint  unit_string  result
0  COc1ccc(-c2c(-c3ccc(C#N)c(F)c3)nc(N3CCC(N)CC3)n(C)c2=O)cc1F [Compound A]           AUC(0-t)      ng·h/mL     729

These measurements were taken from patent US10328077B2.
